Sourced from PubChem BioAssay (Tox21)

# TEST NAME: qHTS assay to identify small molecule antagonists of the farnesoid-X-receptor (FXR) signaling pathway - cell viability counter screen (AID 743221); also: nearly all actives have a fitted effect of over 50% in size
# MEASUREMENT PARAMETERS: FXR-bla HEK293T viability, CellTiter-Glo luminescence, 16 h; series mostly up to 62.6 µM
Inconclusive results are not listed. Calls of active or inactive are those of the source. Calls follow the shape of the dose curve; as a rule, active = well fitted cell-killing curve with a large enough effect in the repeat runs (not every such curve was filed as active); inconclusive = weak or mixed curves, or effect the other way; inactive = no such curve, though single readings can be large or run the other way.
Your reply should match one of these outcome classes. 1 (yes) (active), 0 (no) (inactive)

CCOC(=O)OC(C)OC(=O)[C@@H]1N2C(=O)[C@@H](NC(=O)[C@H](N)c3ccccc3)[C@H]2SC1(C)C (some centres not stated): 0 (no)
CN(C)CCN1C(=O)c2ccccc2N(C)c2ccccc21: 0 (no)
Nc1nnc(-c2ccc([N+](=O)[O-])o2)o1: 0 (no)
O=C(O)CCCCCCCCCCCBr: 0 (no)
CCOC(=O)C1=C(C)NC(C)=C(C(=O)OC)C1c1cccc(Cl)c1Cl (configuration not stated): 0 (no)

We now examine a further compound.
Query string: Please indicate how the test categorized NC1[C@H]2CN(c3nc4c(cc3F)c(=O)c(C(=O)O)cn4-c3ccc(F)cc3F)C[C@@H]12 (some centres not stated) .
Result string: 0 (no)

----------
# TARGET ENTITY: Aromatase (Homo sapiens) (UniProt P11511)
# Sequence (P11511 whole entry, looked up): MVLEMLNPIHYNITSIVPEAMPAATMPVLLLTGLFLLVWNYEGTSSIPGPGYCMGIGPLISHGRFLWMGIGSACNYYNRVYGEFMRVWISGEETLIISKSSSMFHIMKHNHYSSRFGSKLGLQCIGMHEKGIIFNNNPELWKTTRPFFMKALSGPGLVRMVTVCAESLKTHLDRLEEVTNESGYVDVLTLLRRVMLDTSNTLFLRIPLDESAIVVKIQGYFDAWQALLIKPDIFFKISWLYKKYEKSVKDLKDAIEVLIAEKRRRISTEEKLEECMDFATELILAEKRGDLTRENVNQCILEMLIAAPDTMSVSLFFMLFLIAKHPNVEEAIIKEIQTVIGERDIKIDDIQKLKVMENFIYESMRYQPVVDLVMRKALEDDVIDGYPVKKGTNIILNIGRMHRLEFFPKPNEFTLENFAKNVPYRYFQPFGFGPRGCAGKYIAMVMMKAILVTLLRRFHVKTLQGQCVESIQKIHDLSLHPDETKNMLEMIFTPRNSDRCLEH
# TEST NAME: qHTS assay to identify aromatase inhibitors (AID 743083); also: nearly all actives have a fitted effect of over 55% in size
# MEASUREMENT PARAMETERS: MCF-7 aro ERE, testosterone-driven ERE luciferase, 24 h; series mostly up to 70.3 µM
Results filed as inconclusive are left out. The source made the active and inactive calls. Calls follow the shape of the dose curve; as a rule, active = well fitted inhibition curve with a large enough effect in the repeat runs; inconclusive = weak or mixed curves; inactive = no such curve, though single readings can be large or run the other way.
Write down one outcome, taken from true (1) for active, false (0) for inactive

Known results for compounds:
O=C(Cn1ccnc1[N+](=O)[O-])NCCO: false (0)
C[C@]1(Cn2ccnn2)[C@H](C(=O)O)N2C(=O)C[C@H]2S1(=O)=O: false (0)
CC(=O)OCC(=O)NCCCOc1cccc(CN2CCCCC2)c1: false (0)
O=C(O)CCC(=O)C(=O)O: false (0)
COc1cc(N)c(Cl)cc1C(=O)NC1CCN(CCCOc2ccc(F)cc2)CC1OC (configuration not stated): false (0)
C=CC(=O)OCC1CC2CC1C1CCC(COC(=O)C=C)C21 (configuration not stated): false (0)

Query string: Each compound tested received a call. Report the one for O=[N+]([O-])c1cc(C2CCCCC2)c(O)c([N+](=O)[O-])c1 .
Result string: true (1)

Query string: Fill in: this test's call for C1C[C@@H]2[C@H]3CC[C@H](C3)[C@@H]2C1 is ___
Result string: false (0)

----------
# TEST NAME: qHTS assay to identify small molecule antagonists of the androgen receptor (AR) signaling pathway using the MDA cell line in the presence of 0.5 nM R1881 - cell viability counter screen (AID 1259242); also: nearly all actives have a fitted effect of over 45% in size
# MEASUREMENT PARAMETERS: MDA-kb2 viability, CellTiter-Fluor protease fluorescence, 16 h; series mostly up to 92.4 µM
# From the text: U.S. Tox21 Program National Center for Advancing Translational Sciences [NCATS] NIH Chemical Genomics Center [NCGC] U.S. Environmental Protection Agency [EPA] National Institutes of Environmental Health Sciences [NIEHS] National Toxicology Program [NTP] U.S. Food and Drug Administration [FDA] Tox21 Assay Overview: Androgen receptor (AR) is an important member of the nuclear receptor family. Its signaling plays a critical role in AR-dependent prostate cancer and other androgen related diseases. […]
Results filed as inconclusive are left out. Active and inactive are the calls of the source. The call rests on the fitted dose curve; in most records, active means well fitted cell-killing curve with a large enough effect in the repeat runs; inconclusive means weak or mixed curves, or effect the other way; inactive means flat fitted curve, though single readings scatter.
In this exercise, the only acceptable responses are active, inactive

Cc1cccc(O)c1N: inactive

Query string: Any idea what this test logged for Cc1c(C)c2c(c(C)c1OC(=O)CCC(=O)OCCO)CC[C@@](C)(CCC[C@H](C)CCC[C@H](C)CCCC(C)C)O2 ?
Result string: inactive

Query string: Just curious, what result did CC1=C(Br)C(=O)C(Br)=C/C1=C(/c1ccccc1S(=O)(=O)O)c1cc(Br)c(O)c(Br)c1C get here?
Result string: active

Query string: // param item: O=C1c2ccccc2C(=O)C1(O)O ; yields the recorded call
Result string: inactive

Query string: Hey, what did the test say about O=c1c(O)c(-c2ccc(O)cc2)oc2cc(O)cc(O)c12 ?
Result string: inactive

Query string: Status in this test for C(=C\c1ccccc1)/c1ccccc1 ?
Result string: inactive
